Target: PLK2 (Homo sapiens)
Construct: purchased Thermo Fisher Scientific (SelectScreen service)
Sequence (Q9NYY3 whole entry): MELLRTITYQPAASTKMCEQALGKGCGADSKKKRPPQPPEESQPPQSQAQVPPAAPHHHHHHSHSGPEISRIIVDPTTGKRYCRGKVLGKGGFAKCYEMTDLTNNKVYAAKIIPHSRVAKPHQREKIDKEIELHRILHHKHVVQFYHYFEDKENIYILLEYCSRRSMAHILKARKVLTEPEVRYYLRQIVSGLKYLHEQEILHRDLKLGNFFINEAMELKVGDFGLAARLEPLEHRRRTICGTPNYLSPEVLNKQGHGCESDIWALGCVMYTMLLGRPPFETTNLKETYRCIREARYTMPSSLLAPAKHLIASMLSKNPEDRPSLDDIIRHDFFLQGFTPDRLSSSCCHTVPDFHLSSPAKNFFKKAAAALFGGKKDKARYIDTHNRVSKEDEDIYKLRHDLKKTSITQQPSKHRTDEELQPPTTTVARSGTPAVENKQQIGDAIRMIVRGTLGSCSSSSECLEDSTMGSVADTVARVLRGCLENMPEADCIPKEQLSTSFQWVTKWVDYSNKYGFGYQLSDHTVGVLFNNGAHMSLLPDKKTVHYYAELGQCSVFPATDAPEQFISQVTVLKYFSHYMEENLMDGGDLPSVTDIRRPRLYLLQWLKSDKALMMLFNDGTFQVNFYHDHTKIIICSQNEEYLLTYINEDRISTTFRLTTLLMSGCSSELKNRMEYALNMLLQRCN
Assay: SelectScreen kinase selectivity assay
Type: biochemical
Reported endpoint: IC50

Measured IC50, Cc1ccc(O)c(C)c1-n1c(N)c(C(N)=O)c2cc(CCCCCC(=O)NO)c(C)nc21 [PKHD-5] : > 50 µM

* * *

Biological target: EPHA6 (Homo sapiens, UniProt Q9UF33)
Construct: purchased Thermo Fisher Scientific (SelectScreen service)
Sequence (Q9UF33 23-1036): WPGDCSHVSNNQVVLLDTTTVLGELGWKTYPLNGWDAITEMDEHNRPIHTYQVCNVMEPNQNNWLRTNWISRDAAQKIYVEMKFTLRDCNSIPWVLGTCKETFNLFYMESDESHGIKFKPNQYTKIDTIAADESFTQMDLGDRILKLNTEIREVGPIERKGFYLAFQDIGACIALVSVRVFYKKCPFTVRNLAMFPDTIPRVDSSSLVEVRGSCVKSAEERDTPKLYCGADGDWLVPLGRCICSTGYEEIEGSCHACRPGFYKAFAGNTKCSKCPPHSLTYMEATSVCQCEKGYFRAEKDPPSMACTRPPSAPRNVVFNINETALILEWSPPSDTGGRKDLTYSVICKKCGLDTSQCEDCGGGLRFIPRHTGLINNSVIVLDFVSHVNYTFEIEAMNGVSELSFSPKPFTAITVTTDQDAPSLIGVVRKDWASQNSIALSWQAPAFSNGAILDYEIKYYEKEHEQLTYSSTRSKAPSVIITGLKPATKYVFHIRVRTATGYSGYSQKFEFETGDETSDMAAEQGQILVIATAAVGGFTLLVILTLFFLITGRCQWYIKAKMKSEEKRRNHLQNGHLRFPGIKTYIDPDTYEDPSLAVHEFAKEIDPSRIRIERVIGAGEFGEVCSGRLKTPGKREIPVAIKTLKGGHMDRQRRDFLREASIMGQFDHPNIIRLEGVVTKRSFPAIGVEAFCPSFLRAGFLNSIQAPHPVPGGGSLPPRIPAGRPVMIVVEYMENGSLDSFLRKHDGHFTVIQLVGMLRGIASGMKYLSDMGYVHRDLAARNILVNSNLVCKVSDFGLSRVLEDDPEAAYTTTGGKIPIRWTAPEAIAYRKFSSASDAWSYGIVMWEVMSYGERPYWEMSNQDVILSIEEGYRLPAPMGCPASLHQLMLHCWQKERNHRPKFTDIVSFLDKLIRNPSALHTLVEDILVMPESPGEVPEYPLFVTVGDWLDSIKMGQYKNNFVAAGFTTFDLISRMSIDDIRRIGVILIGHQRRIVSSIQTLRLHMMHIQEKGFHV
Test: SelectScreen kinase selectivity assay
Format: biochemical
Experimental: The kinase selectivity analysis of PKHD-5 was performed using the SelectScreen kinase analysis service provided by Thermo Fisher Scientific. […] Ultimately, the IC50 values were calculated based on the concentration-inhibition curves by fitting a four-parameter logistic curve, thereby assessing the potency and selectivity of the inhibitors. […]
Reported endpoint: IC50

// `Cc1ccc(O)c(C)c1-n1c(N)c(C(N)=O)c2cc(CCCCCC(=O)NO)c(C)nc21` : IC50 value = > 50 µM
